All values here come from patent US11999727B2.

Give measured pIC50 for each item. Keep answers brief.
Target: PRMT5 (Homo sapiens)
Construct: purchased Viva (custom protein)
Assay: PRMT5 biochemical IC50 assay with SAM as cofactor
Conditions: PRMT5, SAM as cofactor; read-out: SAM IC50
pIC50: −log10 of the molar value.

Item Cc1cc(NC(=O)C(=O)N2C[C@@H](C)CC[C@@H]2c2ccc3sc(C4CC(C)(C)N(C)C(C)(C)C4)nc3c2)cnc1C has what recorded pIC50?
> 7.30

# pIC50 lookup, item C[C@H]1CC[C@H](c2ccc(F)c(Cl)c2)N(C(=O)C(=O)Nc2cncc(C(N)=O)c2)C1 (single isomer, unassigned)
6.30 to 7.30

# query: pIC50 of entry COc1ncc(NC(=O)C(=O)N2C[C@H](C)CC[C@H]2C2CCCCC2)cc1C(N)=O (single isomer, unassigned)
< 6.30

Look up pIC50 for this molecule: Cc1cc(NC(=O)C(=O)N2CC[C@@H](C)C[C@H]2c2ccccc2)cnc1N (racemic)
6.30 to 7.30

GET /values?readout=pIC50&item= CCc1cc(NC(=O)C(=O)N2C[C@@H](C)CC[C@@H]2c2cccc(CCN(C)C)c2)cnc1N
6.30 to 7.30

Give the measured pIC50 of C[C@@H]1CC[C@@H](c2ccc3[nH]ncc3c2F)N(C(=O)C(=O)Nc2cncc(C(N)=O)c2)C1 (single isomer, unassigned) .
6.30 to 7.30

Entry Cc1c(NC(=O)C(=O)N2C[C@@H](C)CC[C@@H]2c2ccc(O)cc2)cnc(N)c1C (single isomer, unassigned) has what pIC50?
6.30 to 7.30

###

Biological target: PRMT5 (Homo sapiens, UniProt O14744)
Construct: purchased Viva (custom protein)
Sequence (O14744 whole entry): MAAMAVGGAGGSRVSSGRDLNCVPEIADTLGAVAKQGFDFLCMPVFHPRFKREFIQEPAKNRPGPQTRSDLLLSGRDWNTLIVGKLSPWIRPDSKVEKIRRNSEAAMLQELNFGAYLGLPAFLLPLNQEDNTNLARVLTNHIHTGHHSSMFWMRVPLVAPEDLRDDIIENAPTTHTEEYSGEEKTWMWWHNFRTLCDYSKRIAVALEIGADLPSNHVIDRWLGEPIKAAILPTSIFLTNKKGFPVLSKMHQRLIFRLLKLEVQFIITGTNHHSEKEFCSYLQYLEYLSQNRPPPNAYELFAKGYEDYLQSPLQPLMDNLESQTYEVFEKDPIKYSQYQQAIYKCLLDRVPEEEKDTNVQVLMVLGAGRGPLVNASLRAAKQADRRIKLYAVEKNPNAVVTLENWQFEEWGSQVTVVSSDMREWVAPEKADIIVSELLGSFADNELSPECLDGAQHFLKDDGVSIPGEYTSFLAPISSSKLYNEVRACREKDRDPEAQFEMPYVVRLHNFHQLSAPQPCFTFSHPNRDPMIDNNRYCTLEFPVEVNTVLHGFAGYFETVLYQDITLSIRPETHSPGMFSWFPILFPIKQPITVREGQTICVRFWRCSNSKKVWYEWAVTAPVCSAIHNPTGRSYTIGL
Sequence (Q9BQA1 whole entry partner): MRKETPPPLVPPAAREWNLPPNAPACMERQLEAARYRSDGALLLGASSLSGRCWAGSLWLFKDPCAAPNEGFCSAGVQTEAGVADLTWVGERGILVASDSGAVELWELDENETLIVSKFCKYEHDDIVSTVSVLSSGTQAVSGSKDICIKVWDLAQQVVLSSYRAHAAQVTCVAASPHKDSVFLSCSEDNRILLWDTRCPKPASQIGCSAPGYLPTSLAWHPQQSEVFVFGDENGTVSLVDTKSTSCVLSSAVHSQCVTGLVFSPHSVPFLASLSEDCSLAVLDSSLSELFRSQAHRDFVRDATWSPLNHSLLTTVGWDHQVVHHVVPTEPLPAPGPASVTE
Assay: PRMT5 biochemical IC50 assay with SAM as cofactor
Conditions: PRMT5, SAM as cofactor; read-out: SAM IC50
pIC50: −log10 of the molar value.
QUANTITY NAME: pIC50

Using the record for CCc1cc(NC(=O)C(=O)N2C[C@@H](C)CC[C@@H]2c2ccc3nn([C@H]4CCN(C)C4)cc3c2)cnc1N (racemic) [Compound 1091] , report its pIC50.
6.30 to 7.30

So what does the record say about pIC50 for Cc1ncc(NC(=O)C(=O)N2C[C@H](C)CC[C@H]2c2ccccc2)cc1C(N)=O (single isomer, unassigned) [Compound 196] ?
< 6.30

I am curious: what pIC50 value has been reported for C[C@@H]1CC[C@@H](c2csc3ccccc23)N(C(=O)C(=O)Nc2cncc(C(N)=O)c2)C1 (single isomer, unassigned) [Compound 463] ?
6.30 to 7.30

What pIC50 value was documented for this compound, C[C@@H]1CC[C@@H](c2cc(F)c3[nH]ncc3c2)N(C(=O)C(=O)Nc2cncc(C(N)=O)c2)C1 (single isomer, unassigned) [Compound 663] ?
6.30 to 7.30

Requested read-out: pIC50. Entry: Cc1cc(NC(=O)C(=O)N2C[C@@H](C)[C@H](C)C[C@H]2c2ccccc2)cnc1N (single isomer, unassigned) [Compound 313]
6.30 to 7.30

Given COc1ncc(NC(=O)C(=O)N2C[C@@H](C)CC[C@@H]2c2ccc3[nH]c(C)nc3c2)cc1C(N)=O (single isomer, unassigned) [Compound 924] , state its recorded pIC50.
< 6.30

Looking for the measured pIC50 of Cc1cc(NC(=O)C(=O)N2CCCCC2C23CC(C(F)(F)F)(C2)C3)cnc1N (stereo not shown) [Compound 217] , can you help?
6.30 to 7.30
